testedOn: T1, raCDH19(1-43)::FLAG::raCDH19(44-770) (construct W, Ra EC1-5) (rat)
T1 construct: leader (1-43 of the entry) left out; also called rat Cadherin19
T1 chain: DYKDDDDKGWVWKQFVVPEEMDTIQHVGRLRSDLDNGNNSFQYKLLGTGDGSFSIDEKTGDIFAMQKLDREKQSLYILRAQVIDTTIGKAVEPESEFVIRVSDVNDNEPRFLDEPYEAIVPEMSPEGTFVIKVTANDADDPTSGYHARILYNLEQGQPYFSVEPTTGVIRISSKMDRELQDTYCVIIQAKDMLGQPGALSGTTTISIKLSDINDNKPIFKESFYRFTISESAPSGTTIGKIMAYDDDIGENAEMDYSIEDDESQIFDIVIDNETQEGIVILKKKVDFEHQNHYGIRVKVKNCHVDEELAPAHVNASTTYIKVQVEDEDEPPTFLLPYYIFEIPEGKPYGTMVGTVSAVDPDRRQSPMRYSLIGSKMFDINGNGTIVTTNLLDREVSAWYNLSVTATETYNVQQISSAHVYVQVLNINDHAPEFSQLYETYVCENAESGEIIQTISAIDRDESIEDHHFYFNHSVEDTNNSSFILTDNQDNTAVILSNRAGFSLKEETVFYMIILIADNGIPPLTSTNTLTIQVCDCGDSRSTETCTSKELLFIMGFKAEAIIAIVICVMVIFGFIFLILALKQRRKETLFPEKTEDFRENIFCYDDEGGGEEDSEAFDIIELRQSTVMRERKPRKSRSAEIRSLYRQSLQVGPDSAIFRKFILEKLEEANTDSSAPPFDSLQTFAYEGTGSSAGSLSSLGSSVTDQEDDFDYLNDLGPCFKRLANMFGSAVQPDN
procedureText: flow cytometry, transfected 293T cells, 2 mM CaCl2;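 note: antibody binding read out as cell-bound Alexa647 label signal, with mock-transfected cells as controls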
experimentalReadout: binding result

input: // lookup binding result for hu anti-<huCDH19> 23A10.3 (1-474)(L92Q) VH::huIgG1z + 23A10.3 (1-231)(C42S) VL::huLLC-C2 (Ab ID 14077) (antibody, V domains shown, Engineered variant of 23A10; the entries already carry the changes; Bin 4) VH: QVQLVESGGGVVQPGRSLRLSCAASGFTFSRYGIHWVRQAPGKGLEWVAVIWYDGSNKYYADSVKGRFTISRDNSKNTLYLQMNSLRAEDSAVYYCARRAGIPGTTGYYYGMDVWGQGTTVTVSS VL: SYELTQPPSVSVSPGQTASITCSGDRLGEKYVSWYQQKPGQSPILVIYQDNKWPSGIPERFSGSNSGNTATLTISGTQAMDEADYYCQAWDSSTVVFGGGTKLTVLG
output: binds

input: I would be grateful if you could share the reported binding result for hu anti-<huCDH19> 4B10 (Ab ID 13590) (antibody, V domains shown, huIgG1z / huKLC; Bin 4) VH: QVQLVESGGGVVQPGRSLRLSCAASGFTFSSYDMHWVRQAPGKGLEWVAVISYDGTNEYYADSVKGRFTISRDTSKNTLYLQMNSLRAEDTAVYYCARERYFDWSFDYWGQGTLVSVSS VL: EIVLTQSPGTLSLSPGERATLSCRASQSVSNTYLAWYHQRPGQAPRLLIYGASSRATGIPDRFSGSGSGTDFALTISSLEPEDFAVYYCQQYSNSWTFGQGTKVEIKR .
output: binds

input: Need binding result, item anti-CDH19 antibody 2G6 (Ab ID 13588) (antibody, human IgG1, lambda, V domains shown, Bin 4) VH: QVQLVESGGGVVQPGRSLRLSCAASGFTFSSYGMHWVRQAPGKGLEWVAFIWYDGSNKYYADSVKDRFTISRDNSKNTLYLQMKSLRAEDTAVYYCARRAGIIGTIGYYYGMDVWGQGTTVTVSS VL: SYELTQPPSVSVSPGQTASITCSGDRLGEKYTCWYQQRPGQSPLLVIYQDTKRPSGIPERFSGSNSGNTATLTISGTQAMDEADYYCQAWDSSTVVFGGGTKLTVLG
output: binds
